# system_tested: T1, soluble recombinant integrin αvβ3, P06756;P05106
# T1 chain 1: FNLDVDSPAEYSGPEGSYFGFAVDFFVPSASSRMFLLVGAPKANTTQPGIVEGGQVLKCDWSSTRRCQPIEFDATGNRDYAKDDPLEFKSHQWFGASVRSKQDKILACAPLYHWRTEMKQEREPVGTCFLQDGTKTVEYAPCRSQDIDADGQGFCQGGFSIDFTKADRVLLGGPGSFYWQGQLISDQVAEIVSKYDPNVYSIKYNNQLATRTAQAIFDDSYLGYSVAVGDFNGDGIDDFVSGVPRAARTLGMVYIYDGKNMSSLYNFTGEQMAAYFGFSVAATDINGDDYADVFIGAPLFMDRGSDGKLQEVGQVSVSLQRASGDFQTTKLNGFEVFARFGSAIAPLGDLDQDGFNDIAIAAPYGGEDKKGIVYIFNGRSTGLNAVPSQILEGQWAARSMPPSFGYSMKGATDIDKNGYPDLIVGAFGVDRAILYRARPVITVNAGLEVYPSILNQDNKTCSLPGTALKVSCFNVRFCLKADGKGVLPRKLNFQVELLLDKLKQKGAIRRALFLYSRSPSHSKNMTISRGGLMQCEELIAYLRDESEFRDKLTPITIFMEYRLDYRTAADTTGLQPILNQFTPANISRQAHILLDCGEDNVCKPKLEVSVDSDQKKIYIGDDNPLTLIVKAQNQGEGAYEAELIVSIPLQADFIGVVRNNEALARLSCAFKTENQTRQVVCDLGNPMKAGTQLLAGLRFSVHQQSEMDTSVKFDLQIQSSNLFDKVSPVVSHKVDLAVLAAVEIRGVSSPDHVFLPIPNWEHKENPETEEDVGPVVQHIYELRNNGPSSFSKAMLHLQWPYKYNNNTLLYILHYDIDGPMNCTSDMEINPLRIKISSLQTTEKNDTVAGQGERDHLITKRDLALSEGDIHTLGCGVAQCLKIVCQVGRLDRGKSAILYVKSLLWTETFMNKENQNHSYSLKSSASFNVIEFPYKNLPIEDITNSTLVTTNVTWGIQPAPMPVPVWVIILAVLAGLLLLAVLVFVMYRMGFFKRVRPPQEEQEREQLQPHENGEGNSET
# T1 chain 2: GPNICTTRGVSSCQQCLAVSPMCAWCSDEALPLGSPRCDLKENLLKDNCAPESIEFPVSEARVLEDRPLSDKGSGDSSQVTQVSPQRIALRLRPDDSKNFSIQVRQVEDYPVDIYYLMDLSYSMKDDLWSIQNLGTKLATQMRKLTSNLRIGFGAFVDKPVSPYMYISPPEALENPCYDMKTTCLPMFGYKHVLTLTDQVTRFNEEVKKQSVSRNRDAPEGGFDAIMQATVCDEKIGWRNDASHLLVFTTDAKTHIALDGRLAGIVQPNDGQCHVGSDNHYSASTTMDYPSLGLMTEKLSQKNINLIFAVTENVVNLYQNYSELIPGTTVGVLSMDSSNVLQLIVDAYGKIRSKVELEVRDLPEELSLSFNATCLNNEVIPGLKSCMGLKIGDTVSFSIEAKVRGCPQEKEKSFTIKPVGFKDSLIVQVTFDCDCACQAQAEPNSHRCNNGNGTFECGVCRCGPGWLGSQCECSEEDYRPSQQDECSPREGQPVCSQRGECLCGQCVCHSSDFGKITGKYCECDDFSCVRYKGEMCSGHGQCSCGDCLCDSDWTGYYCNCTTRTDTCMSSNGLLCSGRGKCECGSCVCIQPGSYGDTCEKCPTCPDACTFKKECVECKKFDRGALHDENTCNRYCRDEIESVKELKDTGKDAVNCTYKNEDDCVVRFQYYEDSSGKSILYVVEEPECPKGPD
# test_name: ELISA-type binding assay (OD450)
# condition_label: chain shown with the change; CD62P 50 µg/ml; 1 mM Mn2+; parent: est. 0.55; read off a plot
Would you mind telling me the reported response of each entry?
Lab book: enter the figure in OD450, no units written.

Input line: Can you look up the measured response of CD62P (P-selectin) lectin domain (residues 1–117), wild type K58E (protein) WTYHYSTKAYSWNISRKYCQNRYTDLVAIQNKNEIDYLNKVLPYYSSYYWIGIRKNNETWTWVGTKKALTNEAENWADNEPNNKRNNEDCVEIYIKSPSAPGKWNDEHCLKKKHALC for me?
Output line: 0.31

Input line: Can you look up the measured response of CD62P (P-selectin) lectin domain (residues 1–117), wild type R54E; K55E (protein) WTYHYSTKAYSWNISRKYCQNRYTDLVAIQNKNEIDYLNKVLPYYSSYYWIGIEENNKTWTWVGTKKALTNEAENWADNEPNNKRNNEDCVEIYIKSPSAPGKWNDEHCLKKKHALC for me?
Output line: 1.2

Input line: Can you look up the measured response of CD62P (P-selectin) lectin domain (residues 1–117), wild type E88D (protein) WTYHYSTKAYSWNISRKYCQNRYTDLVAIQNKNEIDYLNKVLPYYSSYYWIGIRKNNKTWTWVGTKKALTNEAENWADNEPNNKRNNDDCVEIYIKSPSAPGKWNDEHCLKKKHALC for me?
Output line: 0.8

Input line: Can you look up the measured response of CD62P (P-selectin) lectin domain (residues 1–117), wild type R16E; K17E (protein) WTYHYSTKAYSWNISEEYCQNRYTDLVAIQNKNEIDYLNKVLPYYSSYYWIGIRKNNKTWTWVGTKKALTNEAENWADNEPNNKRNNEDCVEIYIKSPSAPGKWNDEHCLKKKHALC for me?
Output line: 0.14

Input line: Can you look up the measured response of CD62P (P-selectin) lectin domain (residues 1–117), wild type K66E; K67E (protein) WTYHYSTKAYSWNISRKYCQNRYTDLVAIQNKNEIDYLNKVLPYYSSYYWIGIRKNNKTWTWVGTEEALTNEAENWADNEPNNKRNNEDCVEIYIKSPSAPGKWNDEHCLKKKHALC for me?
Output line: 0.35

Input line: Can you look up the measured response of CD62P (P-selectin) lectin domain (residues 1–117), wild type K84E; R85E (protein) WTYHYSTKAYSWNISRKYCQNRYTDLVAIQNKNEIDYLNKVLPYYSSYYWIGIRKNNKTWTWVGTKKALTNEAENWADNEPNNEENNEDCVEIYIKSPSAPGKWNDEHCLKKKHALC for me?
Output line: 0.24
